- Assay Target: NMDA receptor complex, [3H]TCP binding to synaptic plasma membranes (Rattus norvegicus, UniProt P35439)
- Construct: Triton X-100 washed synaptic plasma membranes (SPM) prepared from rat forebrain
- Assay Comment: Assay B: TCP Modulation Assay (stimulation of [3H]TCP binding)
- Particulars: basal conditions
Parameter: Kd (nM)

• c1csc(C2(N3CCCCC3)CCCCC2)c1 [[^3H]TCP] = 44

Attribution: patent US20030073730A1
